Below: a set of entries, each annotated with reported DC50.
Target Or Test System: UniProtKB Q9NWZ3
Sequence (Q9NWZ3 whole entry): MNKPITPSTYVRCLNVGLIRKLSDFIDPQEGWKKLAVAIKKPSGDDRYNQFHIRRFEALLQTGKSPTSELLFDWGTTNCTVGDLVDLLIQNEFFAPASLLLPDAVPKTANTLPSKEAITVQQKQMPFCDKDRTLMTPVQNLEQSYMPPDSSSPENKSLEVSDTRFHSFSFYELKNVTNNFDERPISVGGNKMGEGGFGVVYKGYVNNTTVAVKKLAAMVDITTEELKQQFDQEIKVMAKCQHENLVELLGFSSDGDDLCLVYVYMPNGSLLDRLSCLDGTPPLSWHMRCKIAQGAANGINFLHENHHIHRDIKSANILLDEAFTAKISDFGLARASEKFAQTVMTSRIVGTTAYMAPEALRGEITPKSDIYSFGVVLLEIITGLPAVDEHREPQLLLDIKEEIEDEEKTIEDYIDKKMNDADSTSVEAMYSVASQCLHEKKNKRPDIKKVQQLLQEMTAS
Procedure Details: IRAK4 MSD degradation in OCI-LY10
Type: cell-based
Condition Label: OCI-LY10, 4 hrs; read-out: IRAK4 MSD degradation in OCI-LY10 at 4 hrs: DC50

- Compound: "C[C@H]1CN(c2ccn3ncc(C(=O)NC4=NC([C@H]5CC[C@H](CN6CCC(CCCc7cccc8c7n(C)c(=O)n8C7CCC(=O)NC7=O)CC6)CC5)N=C4C(F)F)c3n2)C[C@H](C)O1 (some centres unmarked)"
  DC50: "0.01 to 0.1 µM"

Exam item: GET /values?readout=DC50&system=UniProtKB Q9NWZ3&item= Cn1c(=O)n(C2CCC(=O)NC2=O)c2cccc(CCC3CCN(c4ccc(CN5CCC(n6cc(NC(=O)c7cnn8ccc(N9C[C@H]%10C[C@@H]9CO%10)nc78)c(C(F)F)n6)CC5)cc4)CC3)c21 (some centres unmarked)
Marked response: 0.01 to 0.1 µM

Exam item: Form field - read-out: DC50; system: UniProtKB Q9NWZ3; submitted item: C[C@@H]1CN(c2ccn3ncc(C(=O)Nc4cn([C@H]5CC[C@H](CN6CCC(OCC#Cc7cccc8c7n(C)c(=O)n8C7CCC(=O)NC7=O)CC6)CC5)nc4C(F)F)c3n2)C[C@@H](C)O1 (some centres unmarked)
Marked response: 0.01 to 0.1 µM

Exam item: Record Cc1ccc(-c2nn([C@H]3CC[C@H](CN4CCC5(CC4)CN(CCCc4cccc6c4n(C)c(=O)n6C4CCC(=O)NC4=O)C5)CC3)cc2NC(=O)c2cnn3cccnc23)nc1 (some centres unmarked) : what is its DC50 with UniProtKB Q9NWZ3?
Marked response: 0.01 to 0.1 µM

Exam item: For UniProtKB Q9NWZ3, provide DC50 of Cn1c(=O)n(C2CCC(=O)NC2=O)c2cccc(CCCOC3CCN(C[C@H]4CC[C@H](n5cc(NC(=O)c6cnn7ccc(N8CCCOCC8)nc67)c(C(F)F)n5)CC4)CC3)c21 (some centres unmarked) please.
Marked response: < 0.01 µM
